# Tested on: GCaMP5-expressing T. gondii
# Construct: whole extracellular parasites expressing GCaMP5 Ca2+ sensor
# Parameters: species or system GCaMP5-expressing Toxoplasma gondii, extracellular; GCaMP5 fluorescence (cytosolic Ca2+) after 100 uM zaprinast in compound-pretreated extracellular parasites, background-subtracted, relative to zaprinast alone
# Test Context: 100 uM zaprinast stimulation; 10 min pretreatment; mean of two replicates; 0.23 h
# label = Condition met if fold change in fluorescence relative to zaprinast alone < 0.8 else Condition not met

Record excerpt, results attached:
>>> classification("COc1ccc(Nc2ncc(C#N)c(Nc3ccccc3C(N)=O)n2)cc1N1CCN(C)CC1 [GSK1558669A]")
"Condition not met"
>>> classification("O=C1NC(=O)C(c2ccc(Cl)cc2)=C1Nc1ccc(O)cc1")
"Condition not met"
>>> classification("O=C(Nc1ccc(Oc2ccc3[nH]c(NC(=O)c4ccccc4)nc3c2)cc1)Nc1cc(C(F)(F)F)ccc1F [GW709042A]")
"Condition not met"
>>> classification("Cc1nn2c(=O)cc(N3CCOC(C)C3)nc2n1Cc1cccc(Cl)c1Cl (centres unmarked) [GSK2373693A]")
"Condition met"

Is fold change in fluorescence relative to zaprinast alone strictly under 0.8 for the entry CCN(CC)CCOc1ccc(Nc2ncc3cc(-c4c(Cl)cccc4Cl)c(=O)n(C)c3n2)cc1 ? Condition met

Is fold change in fluorescence relative to zaprinast alone strictly under 0.8 for the entry C[C@@H](Oc1cc(-n2cnc3cc(-c4cnn(C)c4)ccc32)sc1C(N)=O)c1ccccc1Cl [GSK580432A] ? Condition not met

Is fold change in fluorescence relative to zaprinast alone strictly under 0.8 for the entry CCn1c(-c2nonc2N)nc2cncc(C(=O)N3CCNCC3)c21 ? Condition not met

* * *

# Tested on: GCaMP5-expressing T. gondii
# Construct: whole extracellular parasites expressing GCaMP5 Ca2+ sensor
# Design: species or system GCaMP5-expressing Toxoplasma gondii, extracellular; GCaMP5 fluorescence (cytosolic Ca2+) after 100 uM zaprinast in compound-pretreated extracellular parasites, background-subtracted, relative to zaprinast alone
# Test Context: 100 uM zaprinast stimulation; 10 min pretreatment; mean of two replicates; 0.23 h
# label = Satisfied if fold change in fluorescence relative to zaprinast alone < 1 else Not satisfied

>>> classification("CS(=O)(=O)CCNCc1ccc(-c2ccc3ncnc(Nc4ccc(OCc5cccc(F)c5)c(C(F)(F)F)c4)c3c2)o1 [GW576484X]")
"Satisfied"

With those in mind, consider the next compound.
Is fold change in fluorescence relative to zaprinast alone strictly under 1 for the entry O=C(NCCNc1ccnc(Nc2ccc(F)cc2)n1)Nc1ccc2c(c1)OCO2 [GSK1379882A] ? Not satisfied

* * *

# Tested on: GCaMP5-expressing T. gondii
# Construct: whole extracellular parasites expressing GCaMP5 Ca2+ sensor
# Parameters: species or system GCaMP5-expressing Toxoplasma gondii, extracellular; GCaMP5 fluorescence (cytosolic Ca2+) after 100 uM zaprinast in compound-pretreated extracellular parasites, background-subtracted, relative to zaprinast alone
# Test Context: 100 uM zaprinast stimulation; 10 min pretreatment; mean of two replicates; 0.23 h
# label = t if fold change in fluorescence relative to zaprinast alone < 1 else f

Is fold change in fluorescence relative to zaprinast alone strictly under 1 for the entry Cc1cc(O)cc(C)c1/C=C/c1cncc(C(N)=O)c1 [GW435821X] ? f

* * *

# System: GCaMP5-expressing T. gondii
# Construct: whole extracellular parasites expressing GCaMP5 Ca2+ sensor
# Parameters: species or system GCaMP5-expressing Toxoplasma gondii, extracellular; GCaMP5 fluorescence (cytosolic Ca2+) after 100 uM zaprinast in compound-pretreated extracellular parasites, background-subtracted, relative to zaprinast alone
# Test Context: 100 uM zaprinast stimulation; 10 min pretreatment; mean of two replicates; 0.23 h
Measurement Label: fold change in fluorescence relative to zaprinast alone
Numbers only.

Completed entries (count: 6):
>>> test_value("CSc1ccc(NC2=C(c3ccc(Cl)cc3)C(=O)NC2=O)cc1 [SB-317658]")
0.971
>>> test_value("CCOc1nccc2c1nc(-c1nonc1N)n2CC [SB-737198]")
0.8453
>>> test_value("Cc1ccc2c(-c3ccnc(Nc4ccc5c(c4)OCCO5)n3)c(-c3ccc(C(F)(F)F)cc3)nn2n1 [GW832467X]")
0.6662
>>> test_value("N#Cc1cccc(C(=O)NC2CCN(c3ccnc(Nc4ccc(F)cc4)n3)C2)c1 (stereo not shown) [GSK1379708A]")
1.095
>>> test_value("CNc1nccc(-c2ccc3c(N)n[nH]c3c2)n1 [GSK2206003A]")
1.243
>>> test_value("Cc1cc(N2CCC(NS(=O)(=O)c3ccc(F)cc3)CC2)nc(Nc2cccc(C#N)c2)n1 [GSK1653537A]")
0.8395

Respectfully, I request fold change in fluorescence relative to zaprinast alone for each entry included below.
1. COC(=O)Nc1nc2ccc(Oc3ccc(NC(=O)Nc4cc(C(F)(F)F)ccc4F)cc3)cc2[nH]1 [GW654607A]
2. Cc1cc(O)cc(C)c1/C=C/c1cncc(C(=O)N(C)C)c1 [GW427984X]
3. O=C(Nc1ccccc1F)NC1CCN(c2ccnc(Nc3ccc(F)cc3)n2)C1 (stereo not shown) [GSK1379722A]
4. Nc1n[nH]c2cc(-c3ccccn3)ccc12 [GSK2189892A]
5. c1cnn2ncc(-c3ccnc(Nc4ccc5c(c4)OCCO5)n3)c2c1 [GW806290X]
6. Cc1ccc2c(c1)/C(=N/Nc1ccc(S(N)(=O)=O)cc1)C(=O)N2 [GW275944X]
7. Nc1nc(Nc2ccccc2)cc(-c2ccc3c(N)n[nH]c3c2)n1 [GSK2225749A]

1.325
1.241
0.7204
1.03
-0.04929
1.616
1.117

Respectfully, I request fold change in fluorescence relative to zaprinast alone for each entry included below.
1. CC(C(=O)NC1CCN(c2ccnc(Nc3ccc(F)cc3)n2)C1)c1ccc(Cl)cc1 (stereo not shown) [GSK1379713A]
2. O=c1[nH]cc(-c2ccc(O)cc2)c2sc(-c3ccncc3)cc12 [GSK1033723A]

[0.7096, 1.385]

Respectfully, I request fold change in fluorescence relative to zaprinast alone for each entry included below.
1. CCn1c(-c2ccncc2)nc2cnccc21 [SB-735216]
2. CNc1ncnc2[nH]ncc12 [SKF-18355]
3. COc1ccc(Nc2nccc(NCCNC(=O)Nc3ccccc3F)n2)cc1 [GSK1379901A]
4. O=C1NC(=O)C(c2ccccc2)=C1Nc1cccc(O)c1 [SB-390534]

1. 1.246
2. 1.025
3. 0.9014
4. 0.8317
